# experiment summary: PK of compound of Formula (Ia) after single subcutaneous dose of solution formulations in beagle dogs
# Format: in vivo
# assay conditions: male, beagle, dog, plasma, sc, 12 mg/kg, 24.0 h; mean, n = 3 dogs; SC 12 mg/kg; solution T, 400 mg/mL
assay endpoint: concentration at 24 h (nM)
Note: unit nM is implicit; provide only the numeric part.

Measured concentration at 24 h, CC(C)(C#Cc1ccc(-c2ccc(Cl)c3c(NS(C)(=O)=O)nn(CC(F)(F)F)c23)c([C@H](Cc2cc(F)cc(F)c2)NC(=O)Cn2nc(C(F)(F)F)c3c2C(F)(F)[C@@H]2C[C@H]32)n1)S(C)(=O)=O [compound of Formula (Ia)] : 224

---

# experiment summary: PK of compound of Formula (Ia) after single subcutaneous dose of solution formulations in Wistar Han rats
# Format: in vivo
# assay conditions: male, Wistar Han, rat, plasma, sc, 50 mg/kg, mean ± SD, n = 5 rats; SC 50 mg/kg; solution T, 400 mg/mL; read-out: AUC0-3024 h
assay endpoint: AUC(0-t) (µM·h)
Note: unit µM·h is implicit; provide only the numeric part.

Measured AUC(0-t), `CC(C)(C#Cc1ccc(-c2ccc(Cl)c3c(NS(C)(=O)=O)nn(CC(F)(F)F)c23)c([C@H](Cc2cc(F)cc(F)c2)NC(=O)Cn2nc(C(F)(F)F)c3c2C(F)(F)[C@@H]2C[C@H]32)n1)S(C)(=O)=O` : 655

---

# experiment summary: PK of compound of Formula (Ia) after single subcutaneous dose of solution formulations in Wistar Han rats
# Assay type: in vivo
# assay conditions: male, Wistar Han, rat, plasma, sc, 50 mg/kg, Wistar Han rats, SC 50 mg/kg, 400 mg/mL solution W (5.00% ethanol, 1.57% poloxamer 188), 3360 h, animals #1-#3
assay endpoint: concentration at 3360 h (nM)
Note: unit nM is implicit; provide only the numeric part.

Measured concentration at 3360 h, CC(C)(C#Cc1ccc(-c2ccc(Cl)c3c(NS(C)(=O)=O)nn(CC(F)(F)F)c23)c([C@H](Cc2cc(F)cc(F)c2)NC(=O)Cn2nc(C(F)(F)F)c3c2C(F)(F)[C@@H]2C[C@H]32)n1)S(C)(=O)=O [compound of Formula (Ia)] : 151

---

# experiment summary: PK of compound of Formula (Ia) after single subcutaneous dose of solution formulations in beagle dogs
# Assay type: in vivo
# assay conditions: male, beagle, dog, plasma, sc, 12 mg/kg, beagle dogs, SC 12 mg/kg, 400 mg/mL solution AA (6.25% poloxamer 188), 2352 h, Mean n = 3
assay endpoint: concentration at 2352 h (nM)
Note: unit nM is implicit; provide only the numeric part.

Measured concentration at 2352 h, `CC(C)(C#Cc1ccc(-c2ccc(Cl)c3c(NS(C)(=O)=O)nn(CC(F)(F)F)c23)c([C@H](Cc2cc(F)cc(F)c2)NC(=O)Cn2nc(C(F)(F)F)c3c2C(F)(F)[C@@H]2C[C@H]32)n1)S(C)(=O)=O` : 10.5

---

# experiment summary: PK of compound of Formula (Ia) after single subcutaneous dose of solution formulations in beagle dogs
# Type: in vivo
# assay conditions: male, beagle, dog, plasma, sc, 12 mg/kg, beagle dogs, SC 12 mg/kg, 400 mg/mL solution Z (3.13% poloxamer 188), 840 h, Mean n = 3
assay endpoint: concentration at 840 h (nM)
Note: unit nM is implicit; provide only the numeric part.

Measured concentration at 840 h, CC(C)(C#Cc1ccc(-c2ccc(Cl)c3c(NS(C)(=O)=O)nn(CC(F)(F)F)c23)c([C@H](Cc2cc(F)cc(F)c2)NC(=O)Cn2nc(C(F)(F)F)c3c2C(F)(F)[C@@H]2C[C@H]32)n1)S(C)(=O)=O [compound of Formula (Ia)] : 95.7
